I'd appreciate it if you could supply MFI values for the items below.
Molecular target: T1, human TIGIT on Jurkat cells (TIGIT/NFAT reporter Jurkat cells, BPS Bioscience #60538); Promega TIGIT Effector … (human, UniProt Q495A1 22-244)
T1 construct: whole, on cells; Same protein on two bought Jurkat lines (flow cytometry: BPS; bioassay: Promega); also called hu TIGIT cells; cells expressing human TIGIT
T1 sequence (looked up): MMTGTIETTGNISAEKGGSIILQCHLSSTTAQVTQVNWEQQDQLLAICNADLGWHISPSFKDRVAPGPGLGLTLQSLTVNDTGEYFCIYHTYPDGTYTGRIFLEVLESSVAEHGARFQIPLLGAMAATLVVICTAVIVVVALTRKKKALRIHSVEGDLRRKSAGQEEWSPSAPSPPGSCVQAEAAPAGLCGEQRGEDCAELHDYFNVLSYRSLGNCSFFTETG
Experiment: flow cytometry, TIGIT/NFAT Jurkat cells, 10 ug/ml
Numbers only, in MFI.

Consider the reported MFI for these binders:
>  <binder>
43586p2.D11 (scFv, V domains shown) VH: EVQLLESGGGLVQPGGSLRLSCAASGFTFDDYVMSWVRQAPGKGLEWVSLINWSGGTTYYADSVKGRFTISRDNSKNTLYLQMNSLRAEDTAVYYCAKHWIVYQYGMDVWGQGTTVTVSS VL: QSVLTQPSSASGTPGQRVAISCSGTISNIETKYVSWYKYVSWYQQLPGTAPKLLIYNNVQRPSGVPDRFSGSQSGTSASLAISGLQSEDEAHYYCASWEGGLNSWVFGGGTKLTVL

>  <unit text>
MFI

>  <MFI>
9530

$$$$
>  <binder>
43586p1.1.G9 (scFv, V domains shown) VH: EVQLLESGGGLVQPGGSLRLSCAASGFTFTTYAMSWVRQAPGKGLEWVAGISYIGSDKYYADSVKGRLTISRDNSKNTLYLQMDSLRAEDTAVYYCAKHLTGGTTDYYYYGMDVWGQGTTVTVS VL: QSVLTQPPSASGTPGQRVTISCSGSTSNIGTSRYVHWYQHLPGTAPKLLIYLDSQRPSGVPDRFSASKSGTSASLAISGLQSEDEADYYCSAWDDSLSAWVFGGGTKLTVL

>  <unit text>
MFI

>  <MFI>
9000

$$$$
>  <binder>
43586p1.2.C12 (scFv, V domains shown) VH: ESGGGLVQPGGSLRLSCAASGFTFSDYLMTWVRQAPGKGLEWVSTITWDGDRTYYADSVKGRFTISRDNSKNTLYLQMNSLRAEDTAVYYCAKHWTVFQYGMDVWGQGTTVTVSS VL: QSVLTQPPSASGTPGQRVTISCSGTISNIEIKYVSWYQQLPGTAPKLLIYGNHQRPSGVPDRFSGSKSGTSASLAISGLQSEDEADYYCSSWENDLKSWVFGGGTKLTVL

>  <unit text>
MFI

>  <MFI>
11900

$$$$
>  <binder>
43645p1.C11 (scFv, V domains shown) VH: EVQLLESGGGLVQPGGSLRPSCATSGFTFSSYWMSWVRQAPGKGLEWVSGIHISDSTYYADSVKGRFTISRDNSKNTLYLQMNSLRAEDTAVYYCAKGHTVLQYGMDVWGQGTTVTVSS VL: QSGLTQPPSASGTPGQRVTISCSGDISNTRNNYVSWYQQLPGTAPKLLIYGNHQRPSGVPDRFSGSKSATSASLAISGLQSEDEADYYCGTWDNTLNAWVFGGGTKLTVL

>  <unit text>
MFI

>  <MFI>
9040

$$$$

Next:
-- ask Which MFI is listed for 43586p2.E08 (scFv, V domains shown) VH: EVQLLESGGDLVQPGGSLRLSCAASGFTFDDYVMSWVRQAPGKGLEWVSLINWNGDKTYYADSVKDRFTISRDNSKNTLYLQMNSLRAEDTAVYYCARHWIVFQYGLDVWGQGTTVTVSS VL: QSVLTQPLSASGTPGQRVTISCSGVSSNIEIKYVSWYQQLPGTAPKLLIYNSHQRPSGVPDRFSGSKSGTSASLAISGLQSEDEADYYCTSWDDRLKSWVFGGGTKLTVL ?
-- reply 11300
